Known glycan array binding signal (z-score) of a selection of binders
# Target system: GalNAc3S(b1-4)[Fuc(a1-3)]GlcNAc
# Test details: glycan array binding signal (z-score within array); higher = stronger binding
# Condition label: glycan notation: IUPAC condensed, linker removed
Many of the other results were omitted from the sample, so the strongest signals are more common in it than they were.
Attribute measured: glycan array binding signal (z-score)

- Binder: "PFL (Pseudomonas fluorescens) (protein) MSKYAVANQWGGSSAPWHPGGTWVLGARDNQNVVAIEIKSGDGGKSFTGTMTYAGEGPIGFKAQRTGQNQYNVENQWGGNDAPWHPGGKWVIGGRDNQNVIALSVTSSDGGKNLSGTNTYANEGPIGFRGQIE"
  Obs value: -0.116
- Binder: "CD34 (Homo sapiens), P28906 (protein) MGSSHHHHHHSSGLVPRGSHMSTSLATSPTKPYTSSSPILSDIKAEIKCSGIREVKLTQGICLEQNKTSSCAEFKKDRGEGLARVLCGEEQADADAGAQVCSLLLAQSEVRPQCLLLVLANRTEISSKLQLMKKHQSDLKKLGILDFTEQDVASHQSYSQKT"
  Obs value: 0.211

Attribution: the supplement of paper PMC8728848
